Entries and their PBM binding z-score values follow.
Tested on: PPARg DBDmut IVT, anti-PPARg (DBD mutation: PPARg1 K132A/R137A, NR concentration 270 nM)
Test: PBM binding z-score (relative to random genomic background probes); higher = stronger binding; sequences stand for … in GC…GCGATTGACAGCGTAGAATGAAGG
endpoint.name: PBM binding z-score

{"columns": ["sequence.code", "endpoint.name", "reported.value"],
 "data": [
  ["CGTCCAAGGTCAATGCTAGGTCAGTGACAGCATT", "PBM binding z-score", 0.0917],
  ["TACACAGGGTCAAAGGCCAGAGTACGAATGTCGA", "PBM binding z-score", 0.428],
  ["CGAATTAGGTCAAGGACAGTGAATCTCCGCACGC", "PBM binding z-score", 1.82],
  ["ATCGAAAGGTCTACGAGGTGAGTATACACCGTTT", "PBM binding z-score", 0.317],
  ["GCTTGTAGATCAAGGTTATGAAAGACTAAGCTAA", "PBM binding z-score", 0.0061],
  ["ATCTCTAGATAAAAGTTCAGTGAATCCCGAGGAT", "PBM binding z-score", 0.904],
  ["TCTGCTAGGACAGTTGGTCAGCTAACGAGCTGCC", "PBM binding z-score", -0.756],
  ["TGAATGAGGTCATAAGATCAGGGAACGTTGCAAA", "PBM binding z-score", 1.96],
  ["CCTTACGGGTCACTGACAGATTATAGCATTTGGA", "PBM binding z-score", 0.266],
  ["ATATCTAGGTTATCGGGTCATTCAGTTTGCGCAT", "PBM binding z-score", 3.17],
  ["TGTCGGAGGACACGAAAGGTCAGAGCTCGACATC", "PBM binding z-score", -0.228],
  ["GCTGCTAGGTCAGGTTGGTCAGCTTACGGGTACG", "PBM binding z-score", -0.52],
  ["TATTGTAGATCAATAGAGGTTAAGAAAGTGCGCT", "PBM binding z-score", 1.55],
  ["CCTAGTTGGTCAGGAGGTCACGCACCGGATATGA", "PBM binding z-score", -0.0131],
  ["GCTAGCAGGCCATTTCGGTCACTCAATGACGGGC", "PBM binding z-score", -0.867],
  ["ATCTCTAGGTAAATTTCAGTGAAAGATCGATAGA", "PBM binding z-score", 1.58],
  ["GCATATAGGTAGTACAAGGTGAAAGTCCGATTGT", "PBM binding z-score", 0.977],
  ["ATCTCTAAGTAAAAGTTCAGTGAATCCCGAGGAT", "PBM binding z-score", 0.992],
  ["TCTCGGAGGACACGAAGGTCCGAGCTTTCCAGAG", "PBM binding z-score", -1.37],
  ["GATACAGTGTCAAGGCCAGAGTACGCGTATTGAT", "PBM binding z-score", 0.292],
  ["CCTAGCTGGTCAGGAGGTCACACACCGGATATGA", "PBM binding z-score", 0.266],
  ["CCTACTGGCCCAAAAAGGTCATTGATGCCGATAA", "PBM binding z-score", -0.749],
  ["ACTATTAGTTAACTTAGGGCAACCGATACGACGC", "PBM binding z-score", 1.02],
  ["ATCTCTAGGTAAAGATAGTTCAGTTAATGCAAAT", "PBM binding z-score", 0.769],
  ["CCTAGTTGGTCAACGTCACACACGCTATAGGTAC", "PBM binding z-score", 0.424],
  ["CGAACTAGGTCATCCTGGACAGTGAATACATTGA", "PBM binding z-score", 0.831]
]}
